# experimental_system: hPPAR alpha (Homo sapiens)
# Construct: expressed in transfected cells; host or cells: CV-1 cells
# Sequence (Q07869 239-466 limits assumed): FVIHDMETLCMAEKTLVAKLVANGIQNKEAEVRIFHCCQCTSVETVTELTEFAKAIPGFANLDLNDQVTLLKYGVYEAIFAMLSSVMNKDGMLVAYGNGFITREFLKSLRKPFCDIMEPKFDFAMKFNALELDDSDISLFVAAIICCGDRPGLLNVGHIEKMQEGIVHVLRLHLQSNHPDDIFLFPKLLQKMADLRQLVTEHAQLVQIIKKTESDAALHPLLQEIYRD
# assay_summary: Transient transfection (transactivation) assay in CV-1 cells, GAL4-PPAR LBD chimera, SPAP reporter
# Type: cell-based
# protocol_conditions: read-out: EC50 μM HPPARα
Where a name gives a salt, the structure may show the parent alone.
reported_property: EC50 (µM)

These solved cases illustrate the format of a correct answer.
Cc1cc(CNC(=O)c2cc(-c3ccc(C(C)(C)C)cc3)nn2C)ccc1OC(C)(C)C(=O)O; 0.05
Cc1cc(CNC(=O)c2cc(-c3ccc(CC(C)C)cc3)n(C)n2)ccc1OC(C)(C)C(=O)O; 0.002

a: Cc1cc(CNC(=O)c2cc(-c3ccc(-c4ccccc4)cc3)n(C)n2)ccc1OC(C)(C)C(=O)O
b: COc1cc(CNC(=O)c2cc(-c3ccc(C(C)(C)C)cc3)nn2C)ccc1OC(C)(C)C(=O)O
Ask | Could you determine which record has the numerically smaller EC50? Candidates: a and b Pick one; state its label.
Reply | a

A: Cc1cc(CNC(=O)c2cc(-c3ccc(C(C)(C)C)cc3)n(C)n2)ccc1OC(C)(C)C(=O)O
B: Cc1cc(CNC(=O)c2cc(-c3ccc(C(C)(C)C)cc3)n(CCN3CCOCC3)n2)ccc1OC(C)(C)C(=O)O [Example 54, hydrochloride]
Ask | Short answer wanted: higher EC50, A or B ? Identify your selection by its label.
Reply | B
(B: 0.571 µM, A: 0.014 µM)

* * *

# experimental_system: hPPAR delta (Homo sapiens, UniProt Q03181)
# Construct: expressed in transfected cells; host or cells: CV-1 cells
# Sequence (Q03181 211-439 limits assumed): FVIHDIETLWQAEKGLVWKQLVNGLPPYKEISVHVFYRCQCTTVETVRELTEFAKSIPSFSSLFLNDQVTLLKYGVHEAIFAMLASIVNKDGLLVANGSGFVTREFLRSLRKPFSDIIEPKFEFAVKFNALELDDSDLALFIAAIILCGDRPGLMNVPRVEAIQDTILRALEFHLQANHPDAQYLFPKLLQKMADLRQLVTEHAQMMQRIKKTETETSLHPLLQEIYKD
# assay_summary: Transient transfection (transactivation) assay in CV-1 cells, GAL4-PPAR LBD chimera, SPAP reporter
# Format: cell-based
# protocol_conditions: read-out: EC50 μM HPPARδ
# Source text: Compounds were screened for functional potency in transient transfection assays in CV-1 cells for their ability to activate the PPAR subtypes (transactivation assay). A previously established chimeric receptor system was utilized to allow comparison of the relative transcriptional activity of the receptor subtypes on the same target gene and to prevent endogenous receptor activation from complicating the interpretation of results. […]
reported_property: EC50 (µM)

1: Cc1cc(CNC(=O)c2cc(-c3ccc(N4CCCCC4)cc3)n(C)n2)ccc1OC(C)(C)C(=O)O [Example 21]
2: Cc1cc(CNC(=O)c2cc(-c3ccc(CC(C)C)cc3)n(C)n2)ccc1OC(C)(C)C(=O)O [Example 7]
Ask | Select the item whose EC50 value is smaller, choosing between 1 and 2 . Pick one; state its label.
Reply | 1
(1: 1.12 µM, 2: 2.06 µM)

* * *

# experimental_system: hPPAR alpha (Homo sapiens)
# Construct: expressed in transfected cells; host or cells: CV-1 cells
# assay_summary: Transient transfection (transactivation) assay in CV-1 cells, GAL4-PPAR LBD chimera, SPAP reporter
# Type: cell-based
# protocol_conditions: read-out: EC50 μM HPPARα
reported_property: EC50 (µM)

Recorded EC50, per entry:
Cc1cc(CNC(=O)c2cc(-c3cccc(N4CCCCC4)c3)nn2C)ccc1OC(C)(C)C(=O)O [Example 42]; 0.293
Cc1cc(CNC(=O)c2cc(-c3ccc(N4CCCC4)cc3)n(C)n2)ccc1OC(C)(C)C(=O)O [Example 20]; 0.076
C=CCOc1ccc(-c2cc(C(=O)NCc3ccc(OC(C)(C)C(=O)O)c(C)c3)nn2C)cc1 [Example 59]; 0.094

1: Cc1cc(CNC(=O)Cc2cc(-c3ccc(C(C)(C)C)cc3)n(C)n2)ccc1OC(C)(C)C(=O)O [Example 44]
2: Cc1cc(CNC(=O)c2cc(-c3ccc(-c4ccoc4)cc3)n(C)n2)ccc1OC(C)(C)C(=O)O [Example 33]
Ask | Please state the entry with greater EC50 among 1 and 2 . Your answer should be the label of the entry you select.
Reply | 1
(1: 1.3 µM, 2: 0.004 µM)
